# IC50 listing for each entry below
# targetOfAssay: GlyT1 (Homo sapiens, UniProt P48067)
# Construct: expressed in transfected cells
# Sequence (P48067 whole entry): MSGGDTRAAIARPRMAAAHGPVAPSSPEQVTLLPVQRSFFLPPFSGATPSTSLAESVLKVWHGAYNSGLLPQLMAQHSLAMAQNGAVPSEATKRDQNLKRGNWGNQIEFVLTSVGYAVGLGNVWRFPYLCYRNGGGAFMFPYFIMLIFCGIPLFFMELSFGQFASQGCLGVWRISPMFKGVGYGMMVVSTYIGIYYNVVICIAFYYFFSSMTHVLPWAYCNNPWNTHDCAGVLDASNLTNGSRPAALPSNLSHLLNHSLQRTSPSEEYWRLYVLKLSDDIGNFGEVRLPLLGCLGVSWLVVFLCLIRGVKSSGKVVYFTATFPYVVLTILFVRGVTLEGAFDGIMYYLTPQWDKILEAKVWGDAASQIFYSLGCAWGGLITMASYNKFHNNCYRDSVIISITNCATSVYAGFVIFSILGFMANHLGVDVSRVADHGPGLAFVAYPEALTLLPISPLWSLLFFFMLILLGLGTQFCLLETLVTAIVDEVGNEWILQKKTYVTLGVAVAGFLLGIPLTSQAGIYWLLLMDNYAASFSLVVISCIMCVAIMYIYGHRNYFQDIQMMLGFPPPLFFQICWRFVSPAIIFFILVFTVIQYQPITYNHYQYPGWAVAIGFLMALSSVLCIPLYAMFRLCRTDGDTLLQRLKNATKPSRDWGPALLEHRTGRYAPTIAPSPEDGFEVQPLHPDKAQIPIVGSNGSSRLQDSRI
# assayRemarks: Glycine Transporter 1 (GlyT1) uptake assay, scintillation proximity assay of [14C]-glycine uptake
# Format: cell-based
# settings: SPA, four parameter logistic fit, read-out: GlyT1 (pIC50) (converted)

{"compound": "CC(C)Oc1ccc(S(C)(=O)=O)cc1C(=O)N1Cc2cn(CC3CC(F)(F)C3)nc2C1 [Example 461]", "result": "< 100 nM"}
{"compound": "COc1c(C#N)ccc(O[C@H](C)C(F)(F)F)c1C(=O)N1Cc2cn(-c3ccnc(C)c3)nc2C1 [Example 288]", "result": "< 100 nM"}
{"compound": "O=C(c1cc(N2CCOC2=O)ccc1C1CCCC1)N1CCc2nn(-c3ccccc3)cc2C1 [Example 171]", "result": "100 to 1000 nM"}
{"compound": "COc1c(C#N)ccc(OC(C)C(F)(F)F)c1C(=O)N1CCc2c(cnn2C2CCCCC2)C1 (stereo not drawn) [Example 215]", "result": "< 100 nM"}
{"compound": "COc1c(C#N)ccc(OC(C)C(F)(F)F)c1C(=O)N1CCc2c(cnn2-c2cccnc2)C1 (stereo not drawn) [Example 218]", "result": "< 100 nM"}
{"compound": "Cc1cc(-n2cc3c(n2)CN(C(=O)c2cc(S(C)(=O)=O)ccc2O[C@@H](C)C(F)(F)F)C3)ccn1 [Example 356]", "result": "< 100 nM"}
{"compound": "CCC(CC)Oc1ccc(C#N)c(OC)c1C(=O)N1Cc2cn(-c3ccc(F)cc3)nc2C1 [Example 518]", "result": "< 100 nM"}
{"compound": "CS(=O)(=O)c1ccc(N2CCC(F)(F)CC2)c(C(=O)N2Cc3cn(C4CCCC4)nc3C2)c1 [Example 430]", "result": "< 100 nM"}
{"compound": "COc1c(C#N)ccc(O[C@@H](C)C(F)(F)F)c1C(=O)N1Cc2cn(-c3ncc(F)cc3C)nc2C1 [Example 298]", "result": "< 100 nM"}
{"compound": "CC(Oc1ccc(C#N)cc1C(=O)N1Cc2cn(-c3ccc(F)cc3)nc2C1)C(F)F (stereo not drawn) [Example 9]", "result": "< 100 nM"}

Please give the measured IC50 for this compound: COc1c(C#N)ccc(C2(F)CCC2)c1C(=O)N1Cc2cn(-c3ccc(F)cn3)nc2C1 [Example 258]
100 to 1000 nM

COc1c(C#N)ccc(OC(C)C(F)(F)F)c1C(=O)N1CCc2c(c(C(F)(F)F)nn2-c2ccc(F)cc2)C1 (stereo not drawn) [Example 577] , same question.
100 to 1000 nM

Try the compound CC(C)Oc1ccc(S(C)(=O)=O)cc1C(=O)N1Cc2cn(C3CCCCC3)nc2C1 [Example 403]
< 100 nM
